Where these numbers come from: patent US20020137929A1

tested on: TRZAWR (Wheat, Winter, cv Riband); experiment: Postemergence herbicidal evaluation; type: in vivo, Triticum aestivum; conditions: postemergence, rate 0.0625 kg/ha
METRIC: herbicidal rating TRZAWR
No unit in the answer, please; the number alone is enough.

In plain terms, Cc1cccc(CN2C(=O)CSC2=Nc2cc(-n3c(=O)cc(C(F)(F)F)n(C)c3=O)c(F)cc2Cl)c1 has a documented herbicidal rating TRZAWR of 4.0

Quick note, herbicidal rating TRZAWR for C=CCN1C(=O)C(CC(=O)NO)SC1=Nc1cc(-n2c(=O)cc(C(F)(F)F)n(C)c2=O)c(F)cc1Cl (stereo not shown) landed at 4.0

Note to self: herbicidal rating TRZAWR recorded for CSCCN1C(=O)CSC1=Nc1cc(-n2c(=O)cc(C(F)(F)F)n(C)c2=O)c(F)cc1Cl was 4.0

Sure, the documented herbicidal rating TRZAWR for COc1ccc(CN2C(=O)CSC2=Nc2cc(-n3c(=O)cc(C(F)(F)F)n(C)c3=O)c(F)cc2Cl)c(OC)c1 is 3.5
